Values from ChEMBL document CHEMBL1240462

inhibition reference
# System Name: DNA topoisomerase 2-alpha (Homo sapiens)
# Assay Protocol: Inhibition of human topoisomerase 2alpha-mediated relaxation of supercoiled pBR322 DNA at 100 uM after 30 mins by agarose gel electrophoresis
Field format: number, assumed %, no unit text.

{"columns": ["Compound", "Assay Result"],
 "data": [
  ["COc1cccc2c(=O)c3c(OCC(O)CCl)cc(OCC4CO4)cc3oc12 (stereo unspecified)", 65],
  ["COc1cccc2c(=O)c3c(OC)cc(OCC4CO4)cc3oc12 (stereo unspecified)", 4],
  ["CC1(COc2cc(O)c3c(=O)c4ccccc4oc3c2)CO1 (stereo unspecified)", 25]
]}

Request: Suppose we examine the compound COc1cc(OCC2CO2)cc2oc3ccccc3c(=O)c12 (stereo unspecified) ; what inhibition value has been reported?
Response: 51

Request: Suppose we examine the compound COc1cccc2c(=O)c3c(O)cc(OCC4(C)CO4)cc3oc12 (stereo unspecified) ; what inhibition value has been reported?
Response: 23

Request: Suppose we examine the compound CC(O)(CCl)COc1cc(O)c2c(=O)c3ccccc3oc2c1 (stereo unspecified) ; what inhibition value has been reported?
Response: 52

###

# System: DU-145
# Assay Protocol: Cytotoxicity against human DU145 cells after 4 days by MTT assay
# Assay type: functional, cell-based
# Test Context: DU-145, 96 h
Structures can show the parent of a compound that is named as a salt.
pIC50 reference
Give only the number. pIC50 is defined as minus log10 of concentration in molar units.

Request: Lab note: need pIC50 for COc1cccc2c(=O)c3c(O)cc(OCC(C)(O)CCl)cc3oc12 (centres undefined) on DU-145, anyone have it?
Response: 5.14

Request: Lab note: need pIC50 for COc1cccc2c(=O)c3c(OCC(O)CCl)cc(OCC4CO4)cc3oc12 (centres undefined) on DU-145, anyone have it?
Response: 5.41

Request: Lab note: need pIC50 for COc1cccc2c(=O)c3c(OC)cc(OCC4CO4)cc3oc12 (centres undefined) on DU-145, anyone have it?
Response: 6.10

Request: Lab note: need pIC50 for COc1cccc2c1C(=O)c1c(O)c3c(c(O)c1C2=O)C[C@@](O)(C(=O)CO)C[C@@H]3O[C@H]1C[C@H](N)[C@H](O)[C@H](C)O1 [DOXORUBICIN HYDROCHLORIDE] on DU-145, anyone have it?
Response: 5.85

Request: Lab note: need pIC50 for COc1cccc2c(=O)c3c(OC)cc(OCC(O)CCl)cc3oc12 (centres undefined) on DU-145, anyone have it?
Response: 4.82

Request: Lab note: need pIC50 for COc1cc([C@@H]2c3cc4c(cc3[C@@H](O[C@@H]3O[C@@H]5CO[C@@H](C)O[C@H]5[C@H](O)[C@H]3O)[C@H]3COC(=O)[C@H]23)OCO4)cc(OC)c1O [ETOPOSIDE] on DU-145, anyone have it?
Response: 4.86

Request: Lab note: need pIC50 for COc1cc(OCC(O)CCl)cc2oc3ccccc3c(=O)c12 (centres undefined) on DU-145, anyone have it?
Response: 4.40

###

# System Name: DNA topoisomerase 2-alpha (Homo sapiens) (UniProt P11388)
# Sequence (P11388 whole entry): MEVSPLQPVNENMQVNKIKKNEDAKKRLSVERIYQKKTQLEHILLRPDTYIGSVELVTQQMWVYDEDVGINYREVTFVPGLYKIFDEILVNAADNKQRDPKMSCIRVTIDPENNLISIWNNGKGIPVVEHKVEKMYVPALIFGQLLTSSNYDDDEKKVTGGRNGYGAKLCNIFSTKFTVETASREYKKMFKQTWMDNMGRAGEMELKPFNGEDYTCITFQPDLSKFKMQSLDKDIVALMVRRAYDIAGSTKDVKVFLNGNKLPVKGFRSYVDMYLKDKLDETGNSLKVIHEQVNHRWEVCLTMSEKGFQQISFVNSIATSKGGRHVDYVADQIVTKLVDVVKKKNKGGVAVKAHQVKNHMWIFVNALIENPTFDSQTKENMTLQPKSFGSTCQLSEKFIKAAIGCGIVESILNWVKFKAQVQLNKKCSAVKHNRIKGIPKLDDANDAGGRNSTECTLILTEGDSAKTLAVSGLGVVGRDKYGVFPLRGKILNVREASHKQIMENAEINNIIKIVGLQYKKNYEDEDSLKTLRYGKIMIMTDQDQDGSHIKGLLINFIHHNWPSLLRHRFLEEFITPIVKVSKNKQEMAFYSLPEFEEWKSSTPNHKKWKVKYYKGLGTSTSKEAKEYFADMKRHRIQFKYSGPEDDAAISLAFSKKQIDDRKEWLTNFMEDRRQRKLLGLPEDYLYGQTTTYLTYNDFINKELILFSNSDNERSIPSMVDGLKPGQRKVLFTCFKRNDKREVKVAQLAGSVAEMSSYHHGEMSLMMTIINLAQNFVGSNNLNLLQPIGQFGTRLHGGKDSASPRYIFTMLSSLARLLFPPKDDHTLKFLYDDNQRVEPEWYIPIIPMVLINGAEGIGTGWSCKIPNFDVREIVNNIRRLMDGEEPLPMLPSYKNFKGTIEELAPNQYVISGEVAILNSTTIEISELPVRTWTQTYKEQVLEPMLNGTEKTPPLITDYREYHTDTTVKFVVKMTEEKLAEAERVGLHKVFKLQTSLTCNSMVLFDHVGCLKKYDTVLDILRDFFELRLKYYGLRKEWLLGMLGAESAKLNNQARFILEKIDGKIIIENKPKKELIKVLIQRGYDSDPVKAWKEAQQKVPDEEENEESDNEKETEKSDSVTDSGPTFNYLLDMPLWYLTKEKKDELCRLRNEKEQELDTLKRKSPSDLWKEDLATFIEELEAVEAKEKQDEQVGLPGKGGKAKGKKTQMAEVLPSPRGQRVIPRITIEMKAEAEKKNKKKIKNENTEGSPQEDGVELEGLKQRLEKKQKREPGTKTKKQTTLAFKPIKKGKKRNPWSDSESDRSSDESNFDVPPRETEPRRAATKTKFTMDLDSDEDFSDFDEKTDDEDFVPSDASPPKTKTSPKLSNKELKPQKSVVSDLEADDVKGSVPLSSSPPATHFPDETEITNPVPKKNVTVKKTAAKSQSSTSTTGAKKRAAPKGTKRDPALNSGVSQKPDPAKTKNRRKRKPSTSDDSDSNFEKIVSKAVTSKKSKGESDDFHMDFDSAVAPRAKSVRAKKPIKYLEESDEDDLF
# Assay Protocol: Inhibition of human topoisomerase 2alpha-mediated relaxation of supercoiled pBR322 DNA at 100 uM after 30 mins by agarose gel electrophoresis
Assay Readout: inhibition

{"columns": ["Molecule", "inhibition"],
 "data": [
  ["COc1cccc2c(=O)c3c(OCC4(C)CO4)cc(OCC4(C)CO4)cc3oc12 (stereo unspecified)", "48%"],
  ["COc1cc(OCC(O)CCl)cc2oc3ccccc3c(=O)c12 (stereo unspecified)", "33%"],
  ["COc1cccc2c(=O)c3c(OCC4CO4)cc(OCC4CO4)cc3oc12 (stereo unspecified)", "71%"],
  ["COc1cccc2c(=O)c3c(O)cc(OCC(C)(O)CCl)cc3oc12 (stereo unspecified)", "85%"],
  ["COc1cccc2c(=O)c3c(OC)cc(OCC(O)CCl)cc3oc12 (stereo unspecified)", "83%"]
]}

In the following, a different molecule is considered.
Request: Suppose we examine the molecule CC1(COc2cc(OCC3(C)CO3)c3c(=O)c4ccccc4oc3c2)CO1 (stereo unspecified) ; what inhibition value has been reported?
Response: 41%

###

pIC50 reference
# System: MCF7
# Assay Protocol: Cytotoxicity against human MCF7 cells after 4 days by MTT assay
# Assay type: functional, cell-based
# Test Context: MCF7, 96 h
Give only the number. pIC50 is defined as minus log10 of concentration in molar units.

{"columns": ["Compound", "Assay Readout", "Assay Result"],
 "data": [
  ["COc1cccc2c(=O)c3c(OC)cc(OCC(O)CCl)cc3oc12 (stereo not given)", "pIC50", 4.29]
]}

Request: Suppose we examine the compound COc1cc(OCC2CO2)cc2oc3ccccc3c(=O)c12 (stereo not given) ; what pIC50 value has been reported?
Response: 4.85

Request: Suppose we examine the compound COc1cccc2c(=O)c3c(OCC4(C)CO4)cc(OCC4(C)CO4)cc3oc12 (stereo not given) ; what pIC50 value has been reported?
Response: 5.60

###

inhibition reference
# System Name: DNA topoisomerase 2-alpha (Homo sapiens)
# Assay Protocol: Inhibition of human topoisomerase 2alpha-mediated relaxation of supercoiled pBR322 DNA at 20 uM after 30 mins by agarose gel electrophoresis
Field format: number, assumed %, no unit text.

{"columns": ["Compound", "System Name", "inhibition (%)"],
 "data": [
  ["COc1cccc2c(=O)c3c(OCC(O)CCl)cc(OCC4CO4)cc3oc12 (configuration not stated)", "DNA topoisomerase 2-alpha (Homo sapiens)", 27],
  ["COc1cccc2c(=O)c3c(O)cc(OCC4(C)CO4)cc3oc12 (configuration not stated)", "DNA topoisomerase 2-alpha (Homo sapiens)", 3]
]}

Request: Suppose we examine the compound CC1(COc2cc(O)c3c(=O)c4ccccc4oc3c2)CO1 (configuration not stated) ; what inhibition value has been reported?
Response: 11

Request: Suppose we examine the compound CC1(COc2cc(OCC3(C)CO3)c3c(=O)c4ccccc4oc3c2)CO1 (configuration not stated) ; what inhibition value has been reported?
Response: 24

Request: Suppose we examine the compound CC(O)(CCl)COc1cc(O)c2c(=O)c3ccccc3oc2c1 (configuration not stated) ; what inhibition value has been reported?
Response: 20

Request: Suppose we examine the compound COc1cccc2c(=O)c3c(OCC4(C)CO4)cc(OCC4(C)CO4)cc3oc12 (configuration not stated) ; what inhibition value has been reported?
Response: 15

###

# System: MCF7
# Assay Protocol: Cytotoxicity against human MCF7 cells after 4 days by MTT assay
# Type: functional, cell-based
# Test Context: MCF7, 96 h
pIC50 reference
Give only the number. pIC50 is defined as minus log10 of concentration in molar units.

For orientation, consider the following solved cases.
{"columns": ["Compound", "Assay Result"],
 "data": [
  ["CC1(COc2cc(O)c3c(=O)c4ccccc4oc3c2)CO1 (stereo not given)", 4.82],
  ["CC1(COc2cc(OCC3(C)CO3)c3c(=O)c4ccccc4oc3c2)CO1 (stereo not given)", 4.82],
  ["COc1cccc2c(=O)c3c(OCC(O)CCl)cc(OCC4CO4)cc3oc12 (stereo not given)", 4.16]
]}

Request: Lab note: need pIC50 for COc1cccc2c(=O)c3c(OCC4CO4)cc(OCC4CO4)cc3oc12 (stereo not given) on MCF7, anyone have it?
Response: 5.00

###

pIC50 reference
# Test system: DU-145
# Assay Protocol: Cytotoxicity against human DU145 cells after 4 days by MTT assay
# Format: functional, cell-based
# Test Context: DU-145, 96 h
Give only the number. pIC50 is defined as minus log10 of concentration in molar units.

For orientation, consider the following solved cases.
{"columns": ["Molecule", "pIC50"],
 "data": [
  ["COc1cccc2c(=O)c3c(OCC4(C)CO4)cc(OCC4(C)CO4)cc3oc12 (configuration not stated)", 6.05],
  ["COc1cccc2c(=O)c3c(OCC4CO4)cc(OCC4CO4)cc3oc12 (configuration not stated)", 5.62],
  ["CC1(COc2cc(OCC3(C)CO3)c3c(=O)c4ccccc4oc3c2)CO1 (configuration not stated)", 5.41],
  ["COc1cc(OCC2CO2)cc2oc3ccccc3c(=O)c12 (configuration not stated)", 5.82]
]}

In the following, a different molecule is considered.
Request: Suppose we examine the molecule CC1(COc2cc(O)c3c(=O)c4ccccc4oc3c2)CO1 (configuration not stated) ; what pIC50 value has been reported?
Response: 4.72

###

# System Name: DNA topoisomerase 2-alpha (Homo sapiens) (UniProt P11388)
# Assay Protocol: Inhibition of human topoisomerase 2alpha-mediated relaxation of supercoiled pBR322 DNA at 20 uM after 30 mins by agarose gel electrophoresis
inhibition reference
Field format: number, assumed %, no unit text.

Request: Suppose we examine the compound COc1cc(OCC2CO2)cc2oc3ccccc3c(=O)c12 (stereo unspecified) ; what inhibition value has been reported?
Response: 5

Request: Suppose we examine the compound COc1cccc2c(=O)c3c(OCC4CO4)cc(OCC4CO4)cc3oc12 (stereo unspecified) ; what inhibition value has been reported?
Response: 9

Request: Suppose we examine the compound COc1cccc2c(=O)c3c(OC)cc(OCC4CO4)cc3oc12 (stereo unspecified) ; what inhibition value has been reported?
Response: 0

Request: Suppose we examine the compound COc1cccc2c(=O)c3c(O)cc(OCC(C)(O)CCl)cc3oc12 (stereo unspecified) ; what inhibition value has been reported?
Response: 41

Request: Suppose we examine the compound COc1cc(OCC(O)CCl)cc2oc3ccccc3c(=O)c12 (stereo unspecified) ; what inhibition value has been reported?
Response: 1

Request: Suppose we examine the compound COc1cccc2c(=O)c3c(OC)cc(OCC(O)CCl)cc3oc12 (stereo unspecified) ; what inhibition value has been reported?
Response: 2
